Just for reference, the supplement of paper PMC10065799 is where these values come from.

Would you kindly list phosphorylation enrichment for each of these sequences?
biological target: EPHB1 (UniProt P54762); experiment: phosphorylation enrichment, bacterial display (enrichment ratio); higher = better substrate or ligand; peptides without Tyr show the background;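 note: 11-residue human phosphosite peptides and single-mutation variants displayed on the E. coli surface, counted by deep sequencing, each peptide's frequency after selection divided by its frequency in the unselected input library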;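 note: frequency after pTyr selection over input frequency; kinase dosed for 20-30% of maximal phosphorylation in three min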
Sequence (P54762 whole entry, looked up): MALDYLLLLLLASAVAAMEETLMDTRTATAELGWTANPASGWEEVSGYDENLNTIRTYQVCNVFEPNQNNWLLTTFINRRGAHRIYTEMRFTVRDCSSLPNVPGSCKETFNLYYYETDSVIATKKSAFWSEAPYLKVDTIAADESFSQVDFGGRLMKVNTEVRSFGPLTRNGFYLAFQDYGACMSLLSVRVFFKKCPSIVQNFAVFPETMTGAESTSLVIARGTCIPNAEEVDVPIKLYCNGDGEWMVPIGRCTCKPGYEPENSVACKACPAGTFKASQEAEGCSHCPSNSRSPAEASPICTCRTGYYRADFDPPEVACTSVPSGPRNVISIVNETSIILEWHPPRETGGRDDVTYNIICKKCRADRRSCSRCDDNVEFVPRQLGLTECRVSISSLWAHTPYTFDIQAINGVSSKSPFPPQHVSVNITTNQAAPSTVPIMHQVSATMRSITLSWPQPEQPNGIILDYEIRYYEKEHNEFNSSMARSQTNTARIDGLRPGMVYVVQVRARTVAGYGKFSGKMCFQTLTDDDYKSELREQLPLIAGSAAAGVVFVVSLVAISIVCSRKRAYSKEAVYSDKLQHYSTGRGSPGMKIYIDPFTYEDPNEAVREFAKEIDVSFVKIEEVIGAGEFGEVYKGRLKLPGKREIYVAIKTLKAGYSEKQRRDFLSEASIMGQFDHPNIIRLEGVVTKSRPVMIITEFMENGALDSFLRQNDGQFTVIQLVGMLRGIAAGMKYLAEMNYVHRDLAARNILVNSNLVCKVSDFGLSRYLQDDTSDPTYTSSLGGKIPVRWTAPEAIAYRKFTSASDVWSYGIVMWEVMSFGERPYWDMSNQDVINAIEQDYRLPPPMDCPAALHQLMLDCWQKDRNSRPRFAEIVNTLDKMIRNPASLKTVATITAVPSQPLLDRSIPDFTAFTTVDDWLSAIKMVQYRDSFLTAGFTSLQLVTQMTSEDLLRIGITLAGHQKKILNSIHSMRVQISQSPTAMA
A bare number is all that is needed in reply.

Query: Provide value of phosphorylation enrichment for this record tested with EPHB1 (UniProt P54762): VGEGPYLISDL [ABCC12_Y7]
Reply: 0.65

Query: Provide value of phosphorylation enrichment for this record tested with EPHB1 (UniProt P54762): FADIAYNFRRG [PAH_Y166_H170R_YF]
Reply: 0.637

Query: Provide value of phosphorylation enrichment for this record tested with EPHB1 (UniProt P54762): MSGDVYSTDYY [NTRK2_Y702_R699G]
Reply: 1.58

Query: Provide value of phosphorylation enrichment for this record tested with EPHB1 (UniProt P54762): AHAGEYGAEAL [HBA1_Y25]
Reply: 0.368

Query: Provide value of phosphorylation enrichment for this record tested with EPHB1 (UniProt P54762): SVVVPYEPHEV [TP53_Y220_P223H]
Reply: 0.716

Query: Provide value of phosphorylation enrichment for this record tested with EPHB1 (UniProt P54762): TKFVAYIESQG [KDM4B_Y34_N29T_YF]
Reply: 0.499

Query: Provide value of phosphorylation enrichment for this record tested with EPHB1 (UniProt P54762): VIKDKYPKAHY [APTX_Y209_R213H]
Reply: 0.268

Query: Provide value of phosphorylation enrichment for this record tested with EPHB1 (UniProt P54762): EYLHKYKGFKI [SYNE1_Y6953_Q6951H]
Reply: 0.509

Query: Provide value of phosphorylation enrichment for this record tested with EPHB1 (UniProt P54762): ICANKYMVESC [RPL10_Y75_K78E]
Reply: 0.482

Query: Provide value of phosphorylation enrichment for this record tested with EPHB1 (UniProt P54762): GSTLSYGRDGR [MATR3_Y158_P154S]
Reply: 0.339

Query: Provide value of phosphorylation enrichment for this record tested with EPHB1 (UniProt P54762): QCTSHYPEHVC [SART3_Y541_D540H]
Reply: 0.458

Query: Provide value of phosphorylation enrichment for this record tested with EPHB1 (UniProt P54762): WVYNHYRWFIW [BRCA2_Y2624_I2627F]
Reply: 0.506

Query: Provide value of phosphorylation enrichment for this record tested with EPHB1 (UniProt P54762): DFRTTYVNANE [KCNH2_Y475_N470D]
Reply: 0.366

----------
test system: AncSZ; assay: phosphorylation enrichment, bacterial display (enrichment ratio); higher = better substrate or ligand; peptides without Tyr show the background
Would you kindly list phosphorylation enrichment for each of these sequences?
A bare number is all that is needed in reply.

Query: What does the record list as phosphorylation enrichment for VGGRIYTDDGL [PKLR_Y218_I219T] ?
Reply: 0.768

Query: What does the record list as phosphorylation enrichment for APQFTYTQGGQ [FLNA_Y1763_A1764T_YF] ?
Reply: 0.602

Query: What does the record list as phosphorylation enrichment for VMTVDYSKTVV [SETD2_Y770] ?
Reply: 0.638

Query: What does the record list as phosphorylation enrichment for EKSREYHRLYE [PIK3R1_Y463_D464H] ?
Reply: 0.538

Query: What does the record list as phosphorylation enrichment for TYGVVYKARNK [CDK2_Y19] ?
Reply: 1.18

Query: What does the record list as phosphorylation enrichment for THLARYSDELR [APOA1_Y190_P189R] ?
Reply: 0.653

Query: What does the record list as phosphorylation enrichment for CTTIHYNYMRN [TP53_Y234_C238R] ?
Reply: 0.805

----------
system: c-Src; assay: phosphorylation enrichment, bacterial display (enrichment ratio); higher = better substrate or ligand; peptides without Tyr show the background
ENDPOINT LABEL: phosphorylation enrichment
A bare number is all that is needed in reply.

Query: What does the record list as phosphorylation enrichment for DEDYLCREELA [POR_Y575_Y575C] ?
Reply: 0.556

Query: What does the record list as phosphorylation enrichment for LTFHMYADPNF [SOS1_Y618_YF] ?
Reply: 0.755

Query: What does the record list as phosphorylation enrichment for QDRDLYPCPGT [RLF_Y671] ?
Reply: 0.613

Query: What does the record list as phosphorylation enrichment for KNKKDYFDMFE [SLC26A3_Y526_YF] ?
Reply: 0.524

Query: What does the record list as phosphorylation enrichment for LFLASYCIGGG [UBD_Y161_C160S] ?
Reply: 0.495

Query: What does the record list as phosphorylation enrichment for RQAQAYRGQRV [TSHR_Y706] ?
Reply: 1.36

Query: What does the record list as phosphorylation enrichment for AFLEDYFTSTE [SRC_Y522] ?
Reply: 0.783

Query: What does the record list as phosphorylation enrichment for GSIQQYIYKQE [PRG4_Y1271] ?
Reply: 0.752

Query: What does the record list as phosphorylation enrichment for ADGLEYPRTGL [MMUT_Y287_S288P] ?
Reply: 0.288

Query: What does the record list as phosphorylation enrichment for ADEEEYEIIAA [FEStide_E_2014] ?
Reply: 0.724

Query: What does the record list as phosphorylation enrichment for KLKRSYPSPDI [USP8_Y717_S718P] ?
Reply: 0.469

Query: What does the record list as phosphorylation enrichment for `ENAGFYFRISA` ?
Reply: 0.492

Query: What does the record list as phosphorylation enrichment for LIDSSYLTPTA [GREB1L_Y1063_R1066P] ?
Reply: 0.421

Query: What does the record list as phosphorylation enrichment for LYNQDYPIHSV [GATM_Y227] ?
Reply: 0.901

Query: What does the record list as phosphorylation enrichment for SRDPFYEMLTA [CYTH1_Y382_A386T] ?
Reply: 3.17

Query: What does the record list as phosphorylation enrichment for VIKDKYPQARY [APTX_Y209_K211Q] ?
Reply: 0.43

Query: What does the record list as phosphorylation enrichment for RLDPVYFVAPA [LAMC2_Y250] ?
Reply: 7.69

Query: What does the record list as phosphorylation enrichment for FISLIYTNFEV [GSTP1_Y109_A114V_YF] ?
Reply: 5.5

Query: What does the record list as phosphorylation enrichment for RRVLVYGGRGA [QDPR_Y16] ?
Reply: 0.674

Query: What does the record list as phosphorylation enrichment for VTPVMYTYDEY [COL10A1_Y623_G618V] ?
Reply: 2.22

Query: What does the record list as phosphorylation enrichment for TKFVAYIESQG [KDM4B_Y34_N29T_YF] ?
Reply: 0.396

Query: What does the record list as phosphorylation enrichment for LIGTPYWMAPE [PAK5_Y608_V604I] ?
Reply: 2.6

Query: What does the record list as phosphorylation enrichment for LHSEAYLKFNE [PBRM1_Y1610_I1614N_YF] ?
Reply: 0.707

Query: What does the record list as phosphorylation enrichment for CQAHGYFCQPI [STK11_Y156_L160P] ?
Reply: 0.404

Query: What does the record list as phosphorylation enrichment for FIPFRYPKEFQ [IDS_Y234_H229Y_YF] ?
Reply: 0.565

Query: What does the record list as phosphorylation enrichment for CHSDDYVHISL [TSC1_Y406] ?
Reply: 0.495

Query: What does the record list as phosphorylation enrichment for VNFGAYINDFN [GLB1_Y488_K493N_YF] ?
Reply: 0.397

Query: What does the record list as phosphorylation enrichment for QYRFIYMAVQH [PTPN11_Y515] ?
Reply: 1.93

Query: What does the record list as phosphorylation enrichment for FADTAYNFRHG [PAH_Y166_I164T_YF] ?
Reply: 0.415

Query: What does the record list as phosphorylation enrichment for EPSLVYMVTKI [CPS1_Y768_D767V] ?
Reply: 1.45

Query: What does the record list as phosphorylation enrichment for EFISECCGEII [EZH2_Y641_Y641C] ?
Reply: 0.472

Query: What does the record list as phosphorylation enrichment for NGTVSYAIVAG [CDH23_Y1672_T1671S] ?
Reply: 0.456

Query: What does the record list as phosphorylation enrichment for TAALWYIYSHT [ENG_Y612] ?
Reply: 1.82

Query: What does the record list as phosphorylation enrichment for EQWRAYLEGTC [HLA-C_Y183_L180W] ?
Reply: 0.398

Query: What does the record list as phosphorylation enrichment for KGPGEYVNIEF [IRS1_Y896_S892G] ?
Reply: 0.484

Query: What does the record list as phosphorylation enrichment for SENFTYIWWLN [PSG4_Y271_K267E_YF] ?
Reply: 0.355

Query: What does the record list as phosphorylation enrichment for CTTIHYNFMCT [TP53_Y234_N239T_YF] ?
Reply: 0.551

Query: What does the record list as phosphorylation enrichment for SVTCTYSPALN [TP53_Y126] ?
Reply: 0.66

Query: What does the record list as phosphorylation enrichment for HRGYLYLAIEY [TEK_Y899] ?
Reply: 0.375

Query: What does the record list as phosphorylation enrichment for VDASYCGGRGV [ANTXR2_Y381_Y381C] ?
Reply: 0.476

Query: What does the record list as phosphorylation enrichment for CEHRGCLYLAI [TEK_Y897_Y897C] ?
Reply: 1.05

Query: What does the record list as phosphorylation enrichment for FCRHNYGVVES [HLA-DRB1_Y112_YF] ?
Reply: 0.446

Query: What does the record list as phosphorylation enrichment for ACLSLYGGFVE [MVD_Y164_R161L] ?
Reply: 4.75

Query: What does the record list as phosphorylation enrichment for LFFFSYLLKNH [PTEN_Y180_V175L_YF] ?
Reply: 1

Query: What does the record list as phosphorylation enrichment for SWSTSYSGYRC [NKAPL_Y91_Y96C] ?
Reply: 0.848

Query: What does the record list as phosphorylation enrichment for KLQKKYGPIYS [CYP17A1_Y60] ?
Reply: 1.17

Query: What does the record list as phosphorylation enrichment for FKIFLYTLNDN [FN1_Y1975_YF] ?
Reply: 0.43

Query: What does the record list as phosphorylation enrichment for KWRGQYDVAIK [BTK_Y425] ?
Reply: 0.567

Query: What does the record list as phosphorylation enrichment for SARFPYLMAEK [LDHB_Y173_R172P] ?
Reply: 0.483

Query: What does the record list as phosphorylation enrichment for SMAKYYASGIA [ACADSB_Y373_E376G] ?
Reply: 0.394

Query: What does the record list as phosphorylation enrichment for LEQQKYTVTVD [IKBKB_Y199] ?
Reply: 0.593

Query: What does the record list as phosphorylation enrichment for RIVEIYTRRLQ [GCH1_Y175_S176T] ?
Reply: 1.01

Query: What does the record list as phosphorylation enrichment for TVDASYYGGRG [ANTXR2_Y380] ?
Reply: 0.642

Query: What does the record list as phosphorylation enrichment for PAEPRYRARQR [KCNJ11_Y26] ?
Reply: 0.958

Query: What does the record list as phosphorylation enrichment for KDLPNYNWNSF [KISS1_Y112] ?
Reply: 0.507

Query: What does the record list as phosphorylation enrichment for KTKLGYSPLHQ [ANK1_Y735] ?
Reply: 0.369

Query: What does the record list as phosphorylation enrichment for EKMWSYMKSAE [GRIA3_Y705] ?
Reply: 0.467

Query: What does the record list as phosphorylation enrichment for DELDKYSEVLK [TPM1_Y60_A63V] ?
Reply: 0.62
